# Assay summary: qHTS assay for small molecule agonists of retinoid X receptor alpha signaling (AID 588544)
# Test context: HEK293T RXRa-UAS-bla, beta-lactamase reporter, 18 h; 530 nm emission
Results filed as inconclusive are left out.
# max response values compiled below
Field: numeric (%). Do not append units.

A selection of reference data follows.
Using the record for CCC(CC)Nc1c([N+](=O)[O-])cc(C)c(C)c1[N+](=O)[O-] , state its measured max response. 4.16

Using the record for CCC[CH2][Sn](=[O])[CH2]CCC , state its measured max response. -5.73

Using the record for CC1(C)Cc2cccc(O)c2O1 , state its measured max response. -1.21

Continue with the molecule presented below.
Using the record for CN/C(=N\[N+](=O)[O-])NCc1cnc(Cl)s1 , state its measured max response. -16.2

* * *

# Test target: Ubiquitin carboxyl-terminal hydrolase 1 (Homo sapiens) (UniProt O94782)
# Sequence (O94782 whole entry, looked up): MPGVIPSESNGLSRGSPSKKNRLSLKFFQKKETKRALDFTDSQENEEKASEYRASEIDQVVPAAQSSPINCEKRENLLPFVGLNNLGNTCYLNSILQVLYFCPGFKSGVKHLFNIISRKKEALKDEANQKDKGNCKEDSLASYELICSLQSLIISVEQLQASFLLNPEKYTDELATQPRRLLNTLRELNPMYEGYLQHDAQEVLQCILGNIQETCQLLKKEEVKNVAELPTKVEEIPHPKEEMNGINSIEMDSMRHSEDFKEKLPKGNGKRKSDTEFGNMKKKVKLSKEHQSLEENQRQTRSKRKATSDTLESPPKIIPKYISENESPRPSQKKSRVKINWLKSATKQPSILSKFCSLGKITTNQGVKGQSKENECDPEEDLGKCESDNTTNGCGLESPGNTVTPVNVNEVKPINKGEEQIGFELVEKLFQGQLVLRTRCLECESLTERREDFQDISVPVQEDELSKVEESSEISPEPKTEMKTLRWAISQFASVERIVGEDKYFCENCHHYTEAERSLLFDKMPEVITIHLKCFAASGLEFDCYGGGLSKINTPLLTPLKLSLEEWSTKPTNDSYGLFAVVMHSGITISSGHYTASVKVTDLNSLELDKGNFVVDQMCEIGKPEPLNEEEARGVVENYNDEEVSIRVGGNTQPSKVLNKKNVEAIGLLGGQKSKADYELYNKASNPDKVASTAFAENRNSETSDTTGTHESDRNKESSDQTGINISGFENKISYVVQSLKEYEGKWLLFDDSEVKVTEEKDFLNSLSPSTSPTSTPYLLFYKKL
# Assay summary: Inhibitors of USP1/UAF1: Pilot qHTS (AID 504865);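 note: rhodamine fluorescence freed from ubiquitin-rhodamine substrate followed over time; top concentration of the series differs between compounds; % is set by controls: 0 for no effect and ±100 for the full control effect; nearly all actives have a fitted effect of over 35% in size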
# Test context: purified USP1/UAF1, Ub-rhodamine cleavage fluorescence; series mostly up to 114 µM
Inconclusive results are not listed. The source made the active and inactive calls. The call rests on the fitted dose curve; in most records, active means well fitted inhibition curve with a large enough effect; inconclusive means small, poorly fitted or top-dose-only effect; inactive means flat fitted curve, though single readings scatter.
Property name: outcome

Using the record for CN1C2CCC1C(C(=O)O)C(OC(=O)c1ccccc1)C2 (stereo not drawn) , state its measured outcome. inactive

Using the record for CCC1C2CC3C4N(C)c5ccccc5[C@]45CC(C2C5O)N3C1O (stereo partly drawn) , state its measured outcome. inactive

Using the record for COc1ccc(CC2NC[C@H](O)[C@H]2OC(C)=O)cc1 (stereo partly drawn) , state its measured outcome. inactive

* * *

# Test target: Glucocorticoid receptor (Homo sapiens) (UniProt P04150)
# Sequence (P04150 whole entry, looked up): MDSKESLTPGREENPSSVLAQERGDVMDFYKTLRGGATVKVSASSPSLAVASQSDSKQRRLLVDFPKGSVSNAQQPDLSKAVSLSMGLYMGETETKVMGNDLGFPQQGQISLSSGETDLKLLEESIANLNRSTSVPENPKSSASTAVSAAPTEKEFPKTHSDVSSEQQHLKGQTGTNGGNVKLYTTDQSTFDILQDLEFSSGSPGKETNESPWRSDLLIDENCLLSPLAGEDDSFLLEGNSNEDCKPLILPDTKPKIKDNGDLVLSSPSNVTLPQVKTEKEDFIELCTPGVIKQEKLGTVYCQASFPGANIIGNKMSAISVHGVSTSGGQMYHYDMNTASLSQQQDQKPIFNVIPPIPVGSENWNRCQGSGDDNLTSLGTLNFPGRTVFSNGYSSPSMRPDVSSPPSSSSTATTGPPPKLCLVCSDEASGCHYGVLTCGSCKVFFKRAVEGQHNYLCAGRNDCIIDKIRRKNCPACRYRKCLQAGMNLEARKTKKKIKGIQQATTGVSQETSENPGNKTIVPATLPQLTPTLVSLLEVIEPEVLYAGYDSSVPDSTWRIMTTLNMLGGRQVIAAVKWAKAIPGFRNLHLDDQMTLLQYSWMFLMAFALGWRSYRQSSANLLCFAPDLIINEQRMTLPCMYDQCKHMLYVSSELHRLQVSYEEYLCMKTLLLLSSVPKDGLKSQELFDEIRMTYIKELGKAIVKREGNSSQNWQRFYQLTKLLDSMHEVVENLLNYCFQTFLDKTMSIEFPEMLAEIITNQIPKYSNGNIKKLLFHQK
# Assay summary: qHTS assay for small molecule agonists of glucocorticoid receptor signaling (AID 588532);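 note: 100% = dexamethasone at 0.1 µM and 0% = DMSO only wells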
# Test context: HeLa MMTV-bla, beta-lactamase ratio, agonist, 18 h; stronger effect = higher value, percent of dexamethasone control, DMSO zero
Results filed as inconclusive are left out.
# activation values compiled below
Field: numeric (%). Do not append units.

Using the record for Fc1ccc(Oc2ccnc3cc(Cl)cc(Cl)c23)cc1 , state its measured activation. -6.4

Using the record for COc1cc(OC)nc(NC(=O)NS(=O)(=O)c2cc(NC=O)ccc2C(=O)N(C)C)n1 , state its measured activation. -12.6

Using the record for CCOc1nc(F)cc2nc(S(=O)(=O)Nc3c(Cl)cccc3Cl)nn12 , state its measured activation. 0.859

Using the record for COP(=O)(NC(C)=O)SC (stereo unspecified) , state its measured activation. -2.58

Using the record for CCOc1nc(NC)nc(NC(=O)NS(=O)(=O)c2ccccc2C(=O)OC)n1 , state its measured activation. 15

Next:
Using the record for CCNC(=O)NC(=O)/C(C#N)=N/OC , state its measured activation. 3.07

Using the record for Brc1ccc(Oc2ccccc2)cc1 , state its measured activation. 1.51

Using the record for COc1cc(OC)nc(NC(=O)NS(=O)(=O)c2ncccc2OCC(F)(F)F)n1 , state its measured activation. 3.36

Using the record for CCOc1ccc(C(C)(C)COCc2cccc(Oc3ccccc3)c2)cc1 , state its measured activation. -0.996

Using the record for CC[C@H]1CCCC(O[C@H]2CC[C@H](N(C)C)[C@@H](C)O2)[C@@H](C)C(=O)C2=C[C@@H]3[C@@H](C=C[C@@H]4C[C@@H](O[C@@H]5O[C@@H](C)[C@H](OC)[C@@H](OC)[C@H]5OC)C[C@@H]34)[C@@H]2CC(=O)O1 (stereo partly specified) , state its measured activation. -4.34

Using the record for CN1COCN(Cc2cnc(Cl)s2)/C1=N\[N+](=O)[O-] , state its measured activation. -3.49

Using the record for CC(C)CC(C)Nc1ccc(Nc2ccccc2)cc1 (stereo unspecified) , state its measured activation. 4.35

Using the record for O=C(O)C1(O)c2ccccc2-c2ccc(Cl)cc21 (stereo unspecified) , state its measured activation. -12.8

Using the record for C=C(C)CN(CC)c1c([N+](=O)[O-])cc(C(F)(F)F)cc1[N+](=O)[O-] , state its measured activation. 1.61

Using the record for COC(=O)c1sccc1S(=O)(=O)NC(=O)Nc1nc(C)nc(OC)n1 , state its measured activation. -2.71

Using the record for COP(=S)(OC)Oc1c(Cl)cc(C)cc1Cl , state its measured activation. 2.7

* * *

# Test target: Peroxisome proliferator-activated receptor alpha (Homo sapiens) (UniProt Q07869)
# Sequence (Q07869 whole entry, looked up): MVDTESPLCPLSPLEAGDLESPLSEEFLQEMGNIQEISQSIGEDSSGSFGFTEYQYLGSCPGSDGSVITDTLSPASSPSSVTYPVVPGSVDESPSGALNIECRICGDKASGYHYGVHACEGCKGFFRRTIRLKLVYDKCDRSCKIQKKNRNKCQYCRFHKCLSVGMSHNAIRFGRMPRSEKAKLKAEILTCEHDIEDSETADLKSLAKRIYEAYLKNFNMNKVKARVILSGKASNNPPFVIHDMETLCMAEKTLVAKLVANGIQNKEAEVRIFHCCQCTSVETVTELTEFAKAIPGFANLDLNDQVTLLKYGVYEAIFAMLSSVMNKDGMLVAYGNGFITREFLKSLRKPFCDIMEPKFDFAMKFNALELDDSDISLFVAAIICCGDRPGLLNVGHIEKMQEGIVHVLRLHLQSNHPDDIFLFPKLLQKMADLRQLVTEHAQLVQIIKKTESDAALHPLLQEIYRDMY
# Assay summary: qHTS assay for small molecule agonists of the peroxisome proliferator-activated receptor alpha (PPARalpha) signaling pathway (AID 651778); note: % of control where 0% means no effect
# Test context: PathHunter PPARalpha complementation, chemiluminescence, 6 h; stronger effect = higher value
# max response values compiled below
Field: numeric (%). Do not append units.

A selection of reference data follows.
Please look at CCCOc1nn(C(=O)NS(=O)(=O)c2ccccc2C(=O)OC)c(=O)n1C and tell me its recorded max response on Peroxisome proliferator-activated receptor alpha (Homo sapiens) (UniProt Q07869). 0.0457

Please look at CNC(=O)Oc1ccc(N(C)C)c(C)c1 and tell me its recorded max response on Peroxisome proliferator-activated receptor alpha (Homo sapiens) (UniProt Q07869). -2.96

Please look at CCNS(=O)(=O)C(F)(F)C(F)(F)C(F)(F)C(F)(F)C(F)(F)C(F)(F)C(F)(F)C(F)(F)F and tell me its recorded max response on Peroxisome proliferator-activated receptor alpha (Homo sapiens) (UniProt Q07869). 5.8

Please look at O=P(Oc1ccccc1)(Oc1ccccc1)Oc1ccccc1 and tell me its recorded max response on Peroxisome proliferator-activated receptor alpha (Homo sapiens) (UniProt Q07869). -0.776

Please look at COc1cc(Cl)c(OC)cc1Cl and tell me its recorded max response on Peroxisome proliferator-activated receptor alpha (Homo sapiens) (UniProt Q07869). -0.244

Next:
Please look at CC1=NNC(=O)N(/N=C/c2cccnc2)C1 and tell me its recorded max response on Peroxisome proliferator-activated receptor alpha (Homo sapiens) (UniProt Q07869). -0.256

Please look at O=[N+]([O-])c1ccc(Oc2ccc(C(F)(F)F)cc2[N+](=O)[O-])cc1 and tell me its recorded max response on Peroxisome proliferator-activated receptor alpha (Homo sapiens) (UniProt Q07869). -0.519

Please look at CCCCCCCCCCCCC1=C(OC(C)=O)C(=O)c2ccccc2C1=O and tell me its recorded max response on Peroxisome proliferator-activated receptor alpha (Homo sapiens) (UniProt Q07869). -5.69

Please look at CCOC(=O)C(Cl)Cc1cc(-n2nc(C)n(C(F)F)c2=O)c(F)cc1Cl (stereo unspecified) and tell me its recorded max response on Peroxisome proliferator-activated receptor alpha (Homo sapiens) (UniProt Q07869). 11

Please look at CC1COC(Cn2cncn2)(c2ccc(Oc3ccc(Cl)cc3)cc2Cl)O1 (stereo unspecified) and tell me its recorded max response on Peroxisome proliferator-activated receptor alpha (Homo sapiens) (UniProt Q07869). 6.01

Please look at O=P(OCC(Br)CBr)(OCC(Br)CBr)OCC(Br)CBr (stereo unspecified) and tell me its recorded max response on Peroxisome proliferator-activated receptor alpha (Homo sapiens) (UniProt Q07869). -0.385

* * *

# Test target: Glucocorticoid receptor (Homo sapiens)
# Assay summary: qHTS assay for small molecule antagonists of glucocorticoid receptor signaling (AID 588533);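 note: cells stimulated with 2 nM dexamethasone as agonist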
# Test context: HeLa MMTV-bla, GRE beta-lactamase ratio, antagonist mode, 18 h; series mostly up to 76.8 µM
Records with an inconclusive call do not appear. Calls of active or inactive are those of the source. The call rests on the fitted dose curve; in most records, active means well fitted inhibition curve with a large enough effect in the signal ratio, with a control signal flat (not every such curve was filed as active); inconclusive means small, poorly fitted or top-dose-only effect, or effect the other way, or a change in a side signal; inactive means flat fitted curve, though single readings scatter; the % refers to the signal ratio.
Select the correct class. Options are active, inactive and nothing else.

Examples from the recorded data:
What call does the record list for CCCN(CCOc1c(Cl)cc(Cl)cc1Cl)C(=O)n1ccnc1 ? inactive

What call does the record list for O=C(O)C(F)(F)C(F)(F)C(F)(F)C(F)(F)C(F)(F)F ? inactive

What call does the record list for O=C(NC(=O)c1c(F)cccc1F)Nc1ccc(OC(F)(F)C(F)OC(F)(F)F)c(Cl)c1 (centres undefined) ? inactive

What call does the record list for O=C(O)C1C(C(=O)O)C2(Cl)C(Cl)=C(Cl)C1(Cl)C2(Cl)Cl (centres undefined) ? inactive

What call does the record list for CCC(C)(NC(=O)c1cc(Cl)c(C)c(Cl)c1)C(=O)CCl (centres undefined) ? inactive

What call does the record list for C/C(=N\C(N)=O)N(C)Cc1ccc(Cl)nc1 ? inactive

What call does the record list for O=[N+]([O-])c1ccc(Oc2ccc(C(F)(F)F)cc2[N+](=O)[O-])cc1 ? inactive

What call does the record list for CN1COCN(Cc2cnc(Cl)s2)/C1=N\[N+](=O)[O-] ? inactive

Next:
What call does the record list for CCCOCC(=Nc1ccc(Cl)cc1C(F)(F)F)n1ccnc1 ? inactive

What call does the record list for CCCCCCCCCCCCN(C)C ? inactive

What call does the record list for Nc1nc(N)nc(Cl)n1 ? inactive

What call does the record list for COP(=S)(OC)Oc1nc(Cl)c(Cl)cc1Cl ? inactive

What call does the record list for CCC[CH2][Sn]([Cl])([Cl])[CH2]CCC ? active

* * *

# max response values compiled below
# Test target: Nuclear receptor subfamily 1 group I member 2 (Rattus norvegicus) (UniProt Q9R1A7)
# Sequence (Q9R1A7 whole entry, looked up): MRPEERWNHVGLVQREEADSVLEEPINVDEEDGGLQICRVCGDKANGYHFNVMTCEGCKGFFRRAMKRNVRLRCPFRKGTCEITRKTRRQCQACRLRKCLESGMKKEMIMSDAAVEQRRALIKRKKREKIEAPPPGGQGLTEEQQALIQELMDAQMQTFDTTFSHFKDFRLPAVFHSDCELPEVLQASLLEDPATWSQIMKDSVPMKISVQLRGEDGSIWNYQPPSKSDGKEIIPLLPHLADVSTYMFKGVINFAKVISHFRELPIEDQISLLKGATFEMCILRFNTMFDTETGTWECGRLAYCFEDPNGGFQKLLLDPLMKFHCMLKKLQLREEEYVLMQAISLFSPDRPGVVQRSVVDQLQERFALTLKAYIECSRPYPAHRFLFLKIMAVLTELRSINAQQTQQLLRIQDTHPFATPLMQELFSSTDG
# Assay summary: qHTS assay for small molecule activators of the rat pregnane X receptor (rPXR) signaling pathway (AID 651751); note: 0% is about no effect
# Test context: rPXR reporter cells, luciferase (One-Glo), 24 h
Field: numeric (%). Do not append units.

Using the record for CC(C)(C#N)N=NC(C)(C)C#N , state its measured max response. 0.774

Using the record for CCOP(=S)(OCC)Oc1cnc2ccccc2n1 , state its measured max response. 7.55

Continue with the compound presented below.
Using the record for CCOc1nc(F)cc2nc(S(=O)(=O)Nc3c(Cl)cccc3Cl)nn12 , state its measured max response. 1.99
